# Test system: LXRa:RXRa (NR concentration 270 nM, RXRa partner concentration 90 nM)
# Test Name: PBM binding z-score (relative to random genomic background probes); higher = stronger binding; sequences stand for … in GC…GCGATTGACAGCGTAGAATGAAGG
Each entry below carries its reported PBM binding z-score.
Reported Property: PBM binding z-score

Sequence Text | Readout Value
GCTTACGAGTCAAAGGTTATAGCATGAATAGAAT | 3
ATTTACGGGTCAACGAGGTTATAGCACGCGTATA | 5.96
GCTGCTAGGTTAGGTTGGTCAGCTAACGGGTACG | -0.356
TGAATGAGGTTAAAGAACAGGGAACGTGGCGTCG | 1.98
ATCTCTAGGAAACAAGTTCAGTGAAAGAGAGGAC | 0.902
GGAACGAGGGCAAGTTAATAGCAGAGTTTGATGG | 0.178

###

Each entry below carries its reported PBM binding z-score.
# System: LXRb:RXRa (NR concentration 270 nM, RXRa partner concentration 90 nM)
# Test Name: PBM binding z-score (relative to random genomic background probes); higher = stronger binding; sequences stand for … in GC…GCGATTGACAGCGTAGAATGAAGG
Reported Property: PBM binding z-score

Sequence Text | Readout Value
CAAACTAGGTCACGAAAGTTCAAAGTCGAATGAC | 6.15
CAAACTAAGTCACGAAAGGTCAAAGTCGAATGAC | 5.99
TCGTGTAGATCAGCAGGTTAAGAAAGCTGGCCAA | 0.0213
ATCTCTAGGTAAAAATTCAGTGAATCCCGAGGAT | -0.277
AGTCAAAGTTCAGGACGAAGTAACGTAAAGCACG | 1.68
CCTACTGGGCAATTCAGAGGTCATTGATCATATG | 3.68
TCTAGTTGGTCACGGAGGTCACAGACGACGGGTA | 3.32
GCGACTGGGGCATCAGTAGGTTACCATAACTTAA | 0.586
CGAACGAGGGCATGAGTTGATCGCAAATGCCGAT | 0.109
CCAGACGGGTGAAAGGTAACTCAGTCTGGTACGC | 0.239
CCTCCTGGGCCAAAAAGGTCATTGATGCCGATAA | 4.12
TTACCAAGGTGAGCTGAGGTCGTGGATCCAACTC | 0.827
ATCTCTAGGTAACAAGTTCAGTGTAAGAGAGGAC | 0.727
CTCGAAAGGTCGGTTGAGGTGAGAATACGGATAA | 1.42
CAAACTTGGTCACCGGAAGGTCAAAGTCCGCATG | 3.39
TCTAGTAGATCAATAGAGGTTAAGAAAGTGCGCT | 1.96
GCTGGTAGGTCAGGTTGGTCAGCTAACGGGTACG | 0.929
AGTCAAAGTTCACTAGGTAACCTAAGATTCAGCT | 3.3
CAGCCTAGCTCAGGGCCAGTATAGGAGGAACGTT | -1.15
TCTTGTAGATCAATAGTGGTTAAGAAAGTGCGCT | 0.00968
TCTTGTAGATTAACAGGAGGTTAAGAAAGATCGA | 0.95
TGAATGAGGTTATAAGATAAGGGAACGTTGCAAA | 0.988
CCTACTGGGCCAAGGCCATTGATCAGTCAAAGCA | -0.606
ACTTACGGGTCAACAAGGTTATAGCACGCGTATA | 4.4
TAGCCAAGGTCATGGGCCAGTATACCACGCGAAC | 4.45
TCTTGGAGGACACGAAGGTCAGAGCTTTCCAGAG | 1.27
